System: Hepatitis C virus
Assay explanation: Antiviral activity against Hepatitis C virus genotype 1b in human Huh7-luc clone ET replicon cells assessed as inhibition of replicon replication after 3 days by luciferase assay
Type: functional, organism-based, Hepacivirus hominis
Run parameters: Huh-7, 72 h

[
  {
    "Molecule": "O=c1ccn([C@@H]2O[C@H](CO)[C@@H](O)[C@]23CCO3)c(=O)[nH]1",
    "EC50": "> 98 µM"
  },
  {
    "Molecule": "[N-]=[N+]=N[C@]1(CO)O[C@@H](n2ccc(=O)[nH]c2=O)[C@@H](O)[C@H]1O",
    "EC50": "> 100 µM"
  },
  {
    "Molecule": "O=C(OCc1ccccc1)[C@@H](NP(=O)(OC[C@H]1O[C@@H](n2ccc(=O)[nH]c2=O)[C@@]2(CCO2)[C@@H]1O)Oc1ccccc1)c1ccccc1 (mixture of isomers)",
    "EC50": "> 87.2 µM"
  }
]
